# method-summary: endothelial E-selectin expression blockers – imaging, HUVEC, immunofluorescence, MLSMR starter and 10KST1 sets, primary screen (AID 487);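 also: signal is fraction of cell area covered by stained E-selectin grains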
# condition-notes: HUVEC TNFalpha-induced E-selectin immunofluorescence imaging, at 2 µM; stronger effect = higher value
Task for the reader: assign each of the following molecules its reported inhibition.
Give bare numbers, in %.

Batch lookup, inhibition per entry.
1. O=C1Nc2ccccc2OC1CC(=O)N1CCCC1 (stereo not drawn)
2. C=CCSC1=C(C#N)C(c2ccccc2C)CC(=O)N1 (stereo not drawn)
3. CCOc1ccc(N(CC(=O)NC2CCCCC2)S(=O)(=O)c2c(C)noc2C)cc1
4. COc1cc2c(cc1OC)-c1nnc(C)n1C1(CCCC1)C2
5. O=C(NCc1cccs1)c1cc2c(s1)CCCC2

Ans:
[-105, -48.8, -52.9, -70.9, -21.4]

* * *

# method-summary: reduction of polyQ htt aggregates in cells – imaging, exon1htt(103Q)mCFP cells, high-content imaging, primary screen (AID 483);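 also: compound exposure lasted 3 days before fixation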;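 as to nuclei count: percent of the per-plate median nuclei count of sample wells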
# condition-notes: exon1htt(103Q)mCFP cell line, aggregate imaging, at 2 µM; measured here: cell count, toxicity
experimental-readout: nuclei count

>  <molecule>
O=C(c1ccccc1-c1nc(-c2ccccc2)no1)N1CCCC1

>  <result>
90.5%

$$$$
>  <molecule>
Cc1ccc2nc(NC(=O)C3CCCN(S(=O)(=O)c4cccc5nonc45)C3)sc2c1 (stereo not given)

>  <result>
91%

$$$$
>  <molecule>
CCOc1ccc(-c2cc(C(=O)N3CCN(c4ccccn4)CC3)c3ccccc3n2)cc1

>  <result>
86.4%

$$$$
>  <molecule>
Cc1nc2ncnn2c(C)c1CCC(=O)NCCCN1CCN(c2cccc(Cl)c2)CC1

>  <result>
99.1%

$$$$
>  <molecule>
CCn1c(SCc2cccc(C(F)(F)F)c2)nnc1-c1ccco1

>  <result>
94.1%

$$$$
>  <molecule>
COc1ccc(S(=O)(=O)n2nc(OC(=O)c3ccc(C)cc3)cc2N)cc1

>  <result>
106%

$$$$

Batch lookup, nuclei count per entry.
1. CCOC(=O)C1CCCN(Cc2nc(N)nc(Nc3ccc(C)cc3)n2)C1 (stereo not given)
2. COc1ccc(CCNC(=O)C2CCN(C(=O)N(C)C)CC2)cc1OC
3. O=C(Cn1nnc2ccccc2c1=O)NC1CCCc2ccccc21 (stereo not given)
4. CCN(Cc1cc2cc(OC)ccc2[nH]c1=O)C(=O)c1ccncc1
5. Cc1cccc(-c2cc3nc(C)cc(NCCCN(C)C)n3n2)c1
6. Cc1cc(C)nc(SCC(=O)Nc2ccc(S(=O)(=O)Nc3nccs3)cc2)n1

Ans:
1: 90.1%; 2: 44.3%; 3: 108%; 4: 111%; 5: 114%; 6: 97.6%

* * *

# target-of-assay: Alpha-2C adrenergic receptor (Homo sapiens)
# method-summary: compounds altering alpha2C-coupled GIRK flux – cell-based, HEK293 alpha2C/GIRK1/2, thallium flux, primary screen (AID 624);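 also: slope of fluorescence ratio to pre-addition baseline per second over 15 to 24 s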
# condition-notes: thallium flux BTC fluorescence, at 10 µM, actives lie on both sides
experimental-readout: slope
Numbers only.

Past entries and their recorded results:
>  <compound>
CC(CN(C)Cc1ccccc1)OC(=O)c1ccc2c(c1)OCCO2 (stereo unspecified)

>  <slope>
0.00539

$$$$
>  <compound>
CCCCOc1ccc(-c2ncc(Cl)cn2)cc1

>  <slope>
0.00373

$$$$
>  <compound>
COCCn1c(COc2ccc(Cl)cc2)nnc1SCC(N)=O

>  <slope>
0.00579

$$$$
>  <compound>
O=C(CSc1nnc(-c2ccncc2)n1-c1ccc(F)cc1)NC(=O)NCc1ccco1

>  <slope>
0.00513

$$$$
>  <compound>
Cc1cccc(NC(=O)Nc2cccc(C#N)c2)n1

>  <slope>
0.00605

$$$$

Batch lookup, slope per entry.
1. c1ccc2oc(SCc3cn4ccccc4n3)nc2c1
2. CCOC(=O)c1cccc(NC(=O)CSc2nnc(-c3cccnc3)n2C)c1
3. Cc1ccc(S(=O)(=O)Nc2nc3ccccc3nc2NCc2ccco2)cc1
4. COc1ccc(C2=NO[C@@H]3C(=O)N(c4cccc(C)c4C)C(=O)[C@H]23)cc1OC

Ans:
[0.00508, 0.00612, 0.00699, 0.00915]

Batch lookup, slope per entry.
1. COCC(=O)N(C)c1nnc(-c2ccccn2)s1
2. CCOc1cc(S(=O)(=O)N2CCC(Cc3ccccc3)CC2)c(OCC)cc1-n1cnnn1

Ans:
1: 0.0059; 2: 0.0103

* * *

Task for the reader: assign each of the following molecules its reported inhibition.
# method-summary: TLR3 IRF3 reporter activation blockers – cell-based, poly I:C stimulus, luciferase, 10K MLSCN set, primary screen (AID 602277)
# condition-notes: HEK293-TLR3 RL24 IRF3 luciferase reporter, at 10 µM, stronger effect = higher value
One number for each entry, in %.

>  <molecule>
CC(=O)OC1c2ccccc2C(=O)N1c1ccccc1C (stereo unspecified)

>  <quantity-unit>
%

>  <inhibition>
22.9

$$$$
>  <molecule>
Cc1c(N(C)C)nc2ccccc2c1N

>  <quantity-unit>
%

>  <inhibition>
20.7

$$$$
>  <molecule>
Cc1nn(S(=O)(=O)N2CCCCC2)c(C)c1Br

>  <quantity-unit>
%

>  <inhibition>
17.2

$$$$
>  <molecule>
CCCCCn1c(N2CCN(Cc3ccccc3)CC2)nc2c1c(=O)[nH]c(=O)n2C

>  <quantity-unit>
%

>  <inhibition>
16.8

$$$$
>  <molecule>
Cc1cc(N=Cc2cc(Br)ccc2O)no1

>  <quantity-unit>
%

>  <inhibition>
15.7

$$$$

Q: Give its inhibition value. Item: Cc1ccc(C)c2[nH]c(=O)c(CCNC(=O)CC(C)(C)C)cc12
Ans: 16.5

* * *

# method-summary: reduction of polyQ htt aggregates in cells – imaging, exon1htt(103Q)mCFP cells, high-content imaging, primary screen (AID 483);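 also: compound exposure lasted 3 days before fixation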
# condition-notes: exon1htt(103Q)mCFP cell line, aggregate imaging, at 2 µM; stronger effect = higher value
The source made the active and inactive calls.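 Rule for the calls: active = visual image review flags a hit and inhibition of aggregation exceeds 20%; inconclusive = visual hit but inhibition at or below 20%; inactive = no hit on visual image review.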
Task for the reader: assign each of the following compounds its reported inhibition of aggregation.

Past entries and their recorded results:
>  <compound>
CSCSC1=C(C#N)C(c2ccc(Cl)cc2)C(C(C)=O)=C(C)N1 (stereo not given)

>  <inhibition of aggregation>
-2.2% (inactive)

$$$$
>  <compound>
COc1ccc2[nH]c(=O)c(CN(CC3CCCO3)C(=O)Nc3ccc(F)cc3)cc2c1 (stereo not given)

>  <inhibition of aggregation>
12.1% (inactive)

$$$$
>  <compound>
Cc1ccc(-c2cc(C(=O)Nc3cc(C)on3)c3ccccc3n2)c(C)c1

>  <inhibition of aggregation>
11.6% (inactive)

$$$$
>  <compound>
CC1=Nn2c(nnc2-c2ccc(F)cc2)SC1

>  <inhibition of aggregation>
4% (inactive)

$$$$
>  <compound>
O=C(CC(=O)c1cc(Cl)ccc1O)c1ccccc1

>  <inhibition of aggregation>
-1.9% (inactive)

$$$$
>  <compound>
Cc1ccccc1C1CC(c2ccccc2)Nc2ncnn21 (stereo not given)

>  <inhibition of aggregation>
-26.3% (inactive)

$$$$
>  <compound>
C=CCn1c(-c2ccccc2)c[nH]c1=S

>  <inhibition of aggregation>
-9.3% (inactive)

$$$$
>  <compound>
CCN(CC)c1ccc2cc(NC(=O)CCC(=O)O)c(=O)oc2c1

>  <inhibition of aggregation>
-6.8% (inactive)

$$$$
>  <compound>
CCC(Sc1ncccc1C(=O)O)C(=O)N1CCCC1 (stereo not given)

>  <inhibition of aggregation>
32.9% (inactive)

$$$$
>  <compound>
CCOC(=O)C1=C(C)Nc2nnnn2C1c1ccc(OC)c(Br)c1 (stereo not given)

>  <inhibition of aggregation>
-8.3% (inactive)

$$$$

Batch lookup, inhibition of aggregation per entry.
1. COC(=O)C1=C(C)Nc2nnnn2C1c1cccs1 (stereo not given)
2. CC(C)NC(=O)CSCc1ccccc1Cl
3. CCCCSc1nc2c(cnn2-c2ccc(F)cc2)c(=O)[nH]1
4. Cc1nnc(SCCn2c(Br)nc3c2c(=O)n(C)c(=O)n3C)s1
5. CCOC(=O)c1nc2sc3c(c2c(=O)[nH]1)CCCC3

Ans:
1. -0.9% (inactive)
2. 6.1% (inactive)
3. 13.9% (inactive)
4. 2% (inactive)
5. -9.6% (inactive)

Batch lookup, inhibition of aggregation per entry.
1. COc1ccc(C(N)=O)cc1N
2. Cc1cccc(-n2ncc3c(NCCCn4ccnc4)ncnc32)c1
3. O=c1oc2ccccc2cc1NCc1ccccc1O
4. CCN(CCCNC(=O)C1CCN(S(=O)(=O)c2cccc3nonc23)CC1)Cc1ccccc1
5. Cc1nc2cc(-n3ccc(=O)cc3)ccc2n1-c1ccccc1
6. CC(=O)N1CCN(c2ccc(N=Cc3c(O)n(Cc4ccccc4)c(=O)[nH]c3=O)cc2)CC1

Ans:
1: -8.6% (inactive); 2: 30.9% (inactive); 3: -25% (inactive); 4: 14.3% (inactive); 5: 1.3% (inactive); 6: -13.5% (inactive)

Batch lookup, inhibition of aggregation per entry.
1. O=C(Nc1ccc(NC(=O)c2ccco2)nc1)c1cccnc1
2. FC(F)(F)c1cc(-c2ccco2)nc(NCc2ccco2)n1
3. CCOc1cc(C(=O)NCc2ccncc2)cc(OCC)c1OCC
4. Cc1noc(C)c1CSc1nc2ccccc2s1

Ans:
1. -0.5% (inactive)
2. 28.3% (inactive)
3. 3.9% (inactive)
4. -7.7% (inactive)
